Test system: NCI-H292 lung cancer cells
Assay: FDA drug screening, complete media vs cholesterol-free media without statin (TABLE 1)
Type: cell-based, human
Conditions: NCI-H292 cells, complete media, FDA drug library screen
Where a name gives a salt, the structure may show the parent alone.
VALUE_TYPE: Complete
Numbers only.

Worked cases, Complete given:
MOLECULE | QUANTITATIVE_RESULT
Cc1nccn1CCC(C(N)=O)(c1ccccc1)c1ccccc1 | 1.001
CO/N=C(\C(=O)N[C@@H]1C(=O)N2C(C(=O)O)=C(Cn3ccc(=N)n3CCO)CS[C@H]12)c1csc(N)n1.O=S(=O)(O)O [Cefoselis (sulfate)] | 1.116
CC[C@@]1(O)C(=O)OCc2c1cc1n(c2=O)Cc2cc3cc(O)ccc3nc2-1 [(S)-10-Hydroxycamptothecin] | 0.02742
C=C1C[C@@H]2[C@H](CC[C@]3(C)C(=O)CC[C@@H]23)[C@@]2(C)C=CC(=O)C=C12 | 1.048
OC[C@@H](O)[C@@H](O)[C@H](O)[C@@H](O)CO | 1.32

Here are 2 molecules. What values of Complete were reported for them?
1. CCc1c2c(nc3ccc(OC(=O)N4CCC(N5CCCCC5)CC4)cc13)-c1cc3c(c(=O)n1C2)COC(=O)[C@]3(O)CC [Irinotecan (hydrochloride)]
2. CC[C@]12CCCN3CCc4c(n(c5ccccc45)[C@@](O)(C(=O)OC)C1)[C@@H]32

(A)
[1.37, 1.178]
